Assay: Rat plasma pharmacokinetics after 10-day vehicle/SLE and digoxin or GE
Format: in vivo, Sprague-Dawley rats
Details: female, Sprague-Dawley, rat, plasma, po, rats, control: vehicle once a day for 10 days, day 11 digoxin 0.5 mg/kg or GE 120 mg/kg ig
attribute_measured: Cmax (ng/mL)
One number for each entry, in ng/mL.

Quick check: Cmax of CC(C)=CCC[C@](C)(O[C@@H]1O[C@H](CO[C@@H]2O[C@H](CO)[C@@H](O)[C@H](O)[C@H]2O)[C@@H](O)[C@H](O)[C@H]1O)[C@H]1CC[C@]2(C)[C@@H]1[C@H](O)C[C@@H]1[C@@]3(C)CC[C@H](O[C@@H]4O[C@H](CO)[C@@H](O)[C@H](O)[C@H]4O[C@@H]4O[C@H](CO)[C@@H](O)[C@H](O)[C@H]4O)C(C)(C)[C@@H]3CC[C@]12C [Rb1, ginsenoside Rb1] ? 430

###

Assay: Rat plasma pharmacokinetics after single-dose vehicle/SLE and digoxin or GE
Type: in vivo, Sprague-Dawley rats
Details: rats, single SLE 500 mg/kg ig, 2 h later digoxin 0.5 mg/kg or GE 120 mg/kg ig
attribute_measured: Cl_F_obs

molecule	Cl_F_obs
CC(C)=CCC[C@](C)(O[C@@H]1O[C@H](CO)[C@@H](O)[C@H](O)[C@H]1O)[C@H]1CC[C@]2(C)[C@@H]1[C@H](O)C[C@@H]1[C@@]3(C)CC[C@H](O[C@@H]4O[C@H](CO)[C@@H](O)[C@H](O)[C@H]4O[C@@H]4O[C@H](CO)[C@@H](O)[C@H](O)[C@H]4O)C(C)(C)[C@@H]3CC[C@]12C [Rd, ginsenoside Rd]	0.011 ± 0.003 L/h
CC(C)=CCC[C@](C)(O[C@@H]1O[C@H](CO[C@@H]2O[C@H](CO)[C@@H](O)[C@H](O)[C@H]2O)[C@@H](O)[C@H](O)[C@H]1O)[C@H]1CC[C@]2(C)[C@@H]1[C@H](O)C[C@@H]1[C@@]3(C)CC[C@H](O[C@@H]4O[C@H](CO)[C@@H](O)[C@H](O)[C@H]4O[C@@H]4O[C@H](CO)[C@@H](O)[C@H](O)[C@H]4O)C(C)(C)[C@@H]3CC[C@]12C [Rb1, ginsenoside Rb1]	0.006 ± 0.002 L/h

Now let's try a different one.
Quick check: Cl_F_obs of C[C@H]1O[C@@H](O[C@H]2[C@@H](O)C[C@H](O[C@H]3[C@@H](O)C[C@H](O[C@H]4CC[C@@]5(C)[C@H](CC[C@@H]6[C@@H]5C[C@@H](O)[C@]5(C)[C@@H](C7=CC(=O)OC7)CC[C@]65O)C4)O[C@@H]3C)O[C@@H]2C)C[C@H](O)[C@@H]1O [Digoxin, digoxin, reference compound] ? 5.53 ± 0.48 L/h

###

Biological target: P-gp (MDR1) (Homo sapiens)
Sequence (P08183 whole entry): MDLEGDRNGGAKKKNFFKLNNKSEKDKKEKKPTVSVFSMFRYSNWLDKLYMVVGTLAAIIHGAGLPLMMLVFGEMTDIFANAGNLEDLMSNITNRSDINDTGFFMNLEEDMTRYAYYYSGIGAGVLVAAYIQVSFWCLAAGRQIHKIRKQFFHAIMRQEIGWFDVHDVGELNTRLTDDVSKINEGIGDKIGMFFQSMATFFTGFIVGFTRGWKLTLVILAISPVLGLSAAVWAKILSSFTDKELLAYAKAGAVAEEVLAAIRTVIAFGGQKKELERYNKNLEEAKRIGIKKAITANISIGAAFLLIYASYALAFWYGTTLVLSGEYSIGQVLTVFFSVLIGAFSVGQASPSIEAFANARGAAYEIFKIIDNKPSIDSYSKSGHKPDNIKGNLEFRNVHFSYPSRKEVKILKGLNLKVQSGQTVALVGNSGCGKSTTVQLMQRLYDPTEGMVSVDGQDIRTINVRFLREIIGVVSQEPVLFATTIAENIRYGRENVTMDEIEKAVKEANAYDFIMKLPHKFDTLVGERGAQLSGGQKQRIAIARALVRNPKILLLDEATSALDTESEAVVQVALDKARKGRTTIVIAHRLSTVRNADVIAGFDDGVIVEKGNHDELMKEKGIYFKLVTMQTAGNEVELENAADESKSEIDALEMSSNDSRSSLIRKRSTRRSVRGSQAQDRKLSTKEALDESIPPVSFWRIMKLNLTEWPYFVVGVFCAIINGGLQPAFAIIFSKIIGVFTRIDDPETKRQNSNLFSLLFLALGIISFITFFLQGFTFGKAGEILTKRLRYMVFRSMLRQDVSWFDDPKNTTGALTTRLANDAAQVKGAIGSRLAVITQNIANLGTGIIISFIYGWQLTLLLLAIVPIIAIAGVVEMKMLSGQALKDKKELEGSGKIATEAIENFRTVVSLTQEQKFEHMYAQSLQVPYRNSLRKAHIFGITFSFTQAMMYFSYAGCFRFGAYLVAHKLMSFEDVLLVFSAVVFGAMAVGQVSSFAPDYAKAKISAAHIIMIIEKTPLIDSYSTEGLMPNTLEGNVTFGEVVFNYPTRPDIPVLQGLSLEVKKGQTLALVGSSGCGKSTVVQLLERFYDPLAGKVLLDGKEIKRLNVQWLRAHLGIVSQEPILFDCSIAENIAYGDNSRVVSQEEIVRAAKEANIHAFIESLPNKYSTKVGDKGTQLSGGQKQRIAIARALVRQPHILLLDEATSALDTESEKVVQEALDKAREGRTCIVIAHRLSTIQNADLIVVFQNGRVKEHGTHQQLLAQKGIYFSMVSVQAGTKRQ
Test: Transport of digoxin and ginsenosides across L-MDR1 cell monolayers (efflux ratio)
Type: in vitro ADME
Settings: human, LLC-PK1, pH 7.4, L-MDR1 cells, presence of 10 µM verapamil; read-out: Efflux ratio (Papp BL-AP / Papp AP-BL)
Would you mind telling me the reported efflux ratio at 2 h of each entry?
Answers are plain numbers.

molecule	attribute_measured	value_measured
CC(C)=CCC[C@](C)(O)[C@H]1CC[C@]2(C)[C@@H]1[C@H](O)C[C@@H]1[C@@]3(C)CC[C@H](O)C(C)(C)[C@@H]3[C@@H](O[C@@H]3O[C@H](CO)[C@@H](O)[C@H](O)[C@H]3O)C[C@]12C [Rh1, ginsenoside Rh1]	efflux ratio at 2 h	1.6

Now let's try a different one.
Quick check: efflux ratio at 2 h of CC(C)=CCC[C@](C)(O)[C@H]1CC[C@]2(C)[C@@H]1[C@H](O)C[C@@H]1[C@@]3(C)CC[C@H](O)C(C)(C)[C@@H]3[C@@H](O[C@@H]3O[C@H](CO)[C@@H](O)[C@H](O)[C@H]3O[C@@H]3O[C@@H](C)[C@H](O)[C@@H](O)[C@H]3O)C[C@]12C [Rg2, ginsenoside Rg2] ? 1.52
